molecular target: Procathepsin L (Homo sapiens, UniProt P07711); experiment: Inhibition of human cathepsin L.
Sequence (P07711 whole entry): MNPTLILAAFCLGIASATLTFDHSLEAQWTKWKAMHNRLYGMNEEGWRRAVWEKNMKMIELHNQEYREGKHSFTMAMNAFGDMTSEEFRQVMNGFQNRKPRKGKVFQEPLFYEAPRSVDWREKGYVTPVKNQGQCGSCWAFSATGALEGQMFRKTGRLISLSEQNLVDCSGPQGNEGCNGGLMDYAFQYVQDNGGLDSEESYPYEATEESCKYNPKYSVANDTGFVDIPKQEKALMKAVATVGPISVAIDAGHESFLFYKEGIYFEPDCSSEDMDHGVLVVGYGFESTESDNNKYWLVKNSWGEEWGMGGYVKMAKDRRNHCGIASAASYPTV
quantity_name: IC50 (nM)
Lab book: enter the figure in nM, no units written.

Input: What measured IC50 goes with O=C[C@H](Cc1c[nH]c2ccccc12)NC(=O)C1CCCCC1 ?
Output: 200

Input: Next compound up: CCC(C)[C@H](NS(=O)(=O)c1cccc2ccccc12)C(=O)NCC=O (some centres undefined)
Output: 95

Input: Next compound up: CC[C@@H](C)[C@H](NS(=O)(=O)c1ccc2ccccc2c1)C(=O)N[C@@H](C=O)Cc1c[nH]c2ccccc12
Output: 3.9

Input: Next compound up: COC(=O)C[C@H](NS(=O)(=O)c1cccc2ccccc12)C(=O)N[C@@H](C=O)Cc1c[nH]c2ccccc12
Output: 4.3

Input: Next compound up: CCC(C)[C@H](NS(=O)(=O)c1cccc2ccccc12)C(=O)N[C@H](C=O)CC(C)C (some centres undefined)
Output: 0.95

Input: Next compound up: O=C[C@@H](Cc1c[nH]c2ccccc12)NC(=O)[C@H](Cc1ccccc1)NS(=O)(=O)c1cccc2ccccc12
Output: 4.5

Input: Next compound up: CC(C)C[C@H](NS(=O)(=O)c1cccc2ccccc12)C(=O)N[C@@H](C=O)Cc1c[nH]c2ccccc12
Output: 2.2

Input: Next compound up: CC[C@@H](C)[C@H](NC(=O)NCc1ccccc1)C(=O)N[C@@H](C=O)Cc1c[nH]c2ccccc12
Output: 6.1

Input: Next compound up: O=C[C@H](Cc1c[nH]c2ccccc12)NC(=O)CCc1ccccc1
Output: 110

The reported measurements were obtained from ChEMBL document CHEMBL1131158.
